Tested on: SR leukemia
Assay: NCI tumour cell line growth inhibition, 48 h
Where a SMILES comes first, the peptide text is derived from it.
measured-attribute: TGI

>>> measured_value("CCC(C)C(NC(=O)C(NC(=O)C(CC(N)=O)NC(=O)CN)C(C)O)C(=O)NC(C(=O)NC(C)C(=O)NC(C(=O)NC(CCC(=O)O)C(=O)NC(CC(C)C)C(=O)NC(CC(=O)O)C(=O)NC(C(=O)NC(Cc1ccc(O)cc1)C(=O)N1CCCC1C(=O)O)C(C)O)C(C)C)C(C)C (stereo not drawn) (H-GNTIVAVELDTYP-OH; configuration not given here)")
"> 50 µM"
>>> measured_value("CC(=O)c1c(Nc2cccc(F)c2)[nH]c2c(Cl)cc(Cl)c(Cl)c2c1=O")
"> 100 µM"

Here is another molecule to look at.
Task: Using known records, supply TGI for CC1OC(Oc2c(-c3cc(O)c(O)c(O)c3)oc3cc(O)cc(O)c3c2=O)C(O)C(O)C1O (stereo not drawn)
Result: > 100 µM

* * *

Test system: LOX IMVI melanoma
Experiment: NCI tumour cell line growth inhibition, 48 h
measured-attribute: TGI

>>> measured_value("COc1ccc(C(=O)/C=C/c2ccc(Oc3cc(C(=O)/C=C/c4ccc(O)cc4)c(O)cc3OC)cc2)c(O)c1")
"5.05 µM"
>>> measured_value("N#C/C(=C\\c1ccc(Br)cc1)n1nnc2c(F)cccc21")
"2.77 µM"
>>> measured_value("COc1ccc(C(=S)N(C)NC(=O)CC(=O)NN(C)C(=S)c2ccc(OC)cc2)cc1")
"> 100 µM"

Please state TGI for every molecule in the list that follows.
1. Cc1cc(=O)n2nnc3c4ccccc4ccc3n12
2. CC1CC2(OC2C)C(=O)OC2CCN(C)C/C=C(/COC(=O)C1(C)O)C2=O (stereo unspecified)
3. COC(=O)C(=O)C(C(=O)C(=O)Nc1ccc(OC)cc1[N+](=O)[O-])c1nc2ccc([N+](=O)[O-])cc2[nH]c1=O (stereo unspecified)
4. COC(=O)/C=C\[C@H]1[C@H](C)N1S(=O)(=O)c1ccc(C)cc1 (stereo partly specified)
5. N#CC(C#N)=Cc1c[nH]c(=O)[nH]c1=O
6. Cc1nc2cc(-c3nn(C(C)C)c4ncnc(N)c34)ccc2o1
7. O=C(c1ccccc1)c1ccc2cccc(OC3OC(CO)C(O)C(O)C3O)c2n1 (stereo unspecified)
8. CCOP(=O)(O)CC1OC(CO)C(O)C1O (stereo unspecified)

Result:
1: 16.2 µM; 2: > 100 µM; 3: > 100 µM; 4: > 100 µM; 5: > 100 µM; 6: 0.66 µM; 7: > 100 µM; 8: > 100 µM

* * *

Hi there, I'd appreciate the recorded TGI for every entry that follows.
Test system: SF-268 CNS
Assay: NCI tumour cell line growth inhibition, 48 h

>>> measured_value("CC(C)Oc1ccc(-c2nn([C@@H](C)c3oc4ccc(F)cc4c(=O)c3-c3cccc(F)c3)c3ncnc(N)c23)cc1F")
"> 100 µM"
>>> measured_value("COc1cc(C2Oc3cc(-c4oc5cc(O)cc(O)c5c(=O)c4O)ccc3OC2CO)ccc1O (stereo unspecified)")
"> 57.2 µM"
>>> measured_value("C[CH2][Sn]([CH2]C)([O]C(=O)c1c(F)cccc1F)[O][Sn]([CH2]C)([CH2]C)[O]C(=O)c1c(F)cccc1F")
"28.6 µM"
>>> measured_value("COC(=O)C1=C(C=O)C2C=CC1C2 (stereo unspecified)")
"> 100 µM"
>>> measured_value("Cc1cc2cn3c4ccc(O)cc4nc(N)c3c2cc1C")
"5.42 µM"

For each listed entry, give its TGI.
1. N#CNC(=NCCO)NCCO
2. CC(=O)/C=c1\[nH]/c(=C\C=C\c2ccccc2)c(=O)n1/C=C1\C(=O)Oc2ccccc2C1=O
3. COc1ccc(/C=C2\CCC(CN3CCOCC3)C2=O)cc1 (stereo unspecified)
4. CCC1=CCN(c2ccc(C)cc2)OC1c1ccc(OC)cc1 (stereo unspecified)
5. C[N+](C)(CCNc1ccc(NCC[N+](C)(C)Cc2ccc([N+](=O)[O-])cc2)c2c1C(=O)c1ccccc1C2=O)Cc1ccc([N+](=O)[O-])cc1
6. CC1OC(O[C@H]2CC[C@]3(C)[C@H]4CC=C5[C@@H]6[C@@H](C)[C@H](C)CC[C@]6(C(=O)OC6OC(CO)C(O)C(O)C6O)CC[C@@]5(C(=O)O)[C@]4(C)CC[C@H]3C2(C)C)C(O)C(O)C1O (stereo partly specified)

Result:
1: > 100 µM; 2: > 100 µM; 3: 16.4 µM; 4: > 100 µM; 5: > 100 µM; 6: > 100 µM

* * *

Test system: MDA-MB-435
Assay: NCI tumour cell line growth inhibition, 48 h
measured-attribute: TGI (nM)
Give bare numbers, in nM.

A selection of reference data follows.
>>> measured_value("Cc1cc(=O)n2nnc3c4ccccc4ccc3n12")
29900
>>> measured_value("COc1ccc(/C=C2\\COc3ccc(O)c(O)c3C2=O)cc1")
984

--- query ---
Task: Please indicate TGI recorded for COC1=CC(=O)c2c(cc(COP(N)(=O)N(CCBr)CCBr)n2C)C1=O (centres undefined)
Result: 2420

* * *

System: RXF-631 renal
Assay: NCI tumour cell line growth inhibition, 48 h
measured-attribute: TGI

Please supply TGI for each of the following items, keeping them in order.
1. Nc1ccccc1Nc1ccccc1C(=O)[O-].Nc1ccccc1Nc1ccccc1C(=O)[O-].[Ni+2]
2. CN(C)CCONC(=O)C12CC3CC(CC(C3)C1)C2
3. Cc1ccc(C2CC(c3cccc([N+](=O)[O-])c3)=Nc3ccccc3S2)cc1 (stereo unspecified)
4. O=[N+]([O-])c1nccn1COCCO
5. COc1ccc(/C=C2\CCC(CN3CCOCC3)C2=O)cc1 (stereo unspecified)
6. O=C1C2c3[nH]c4ccccc4c3C3CCCCC3C2C(=O)N1c1ccccc1 (stereo unspecified)
7. Cn1cnc([N+](=O)[O-])c1Sc1nc2ccccc2s1
8. CCOC(OC1=C(C#N)CCC1)C(C)[Se]c1ccccc1 (stereo unspecified)

Result:
["> 100 µM", "> 100 µM", "> 100 µM", "> 100 µM", "43.5 µM", "> 100 µM", "16.9 µM", "26.3 µM"]

# map each molecule to its TGI
1. N#CC(C#N)=C1NN=C(Cl)c2ccccc21
2. CCOc1ccc(NC(=O)/C(=C\c2ccc(C)cc2)C(C)=O)cc1
3. CSc1nc(NC2OC(COC(C)=O)C(OC(C)=O)C(OC(C)=O)C2OC(C)=O)c(N=CC=Nc2c(NC3OC(COC(C)=O)C(OC(C)=O)C(OC(C)=O)C3OC(C)=O)nc(SC)[nH]c2=O)c(=O)[nH]1 (stereo unspecified)

Result:
1: > 100 µM; 2: > 100 µM; 3: > 100 µM

* * *

Test system: LXFL 529 NSCLC
Assay: NCI tumour cell line growth inhibition, 48 h
For each of the compounds below, state its TGI.

As a guide, the following entries are already answered.
>>> measured_value("O=[N+]([O-])c1nccn1COCCO")
"> 100 µM"
>>> measured_value("O=C(c1ccccc1)c1ccc2cccc(OC3OC(CO)C(O)C(O)C3O)c2n1 (stereo unspecified)")
"> 100 µM"
>>> measured_value("Cc1ccccc1NC(=O)/C(=N/NC(=O)CC#N)C1C(=O)N(c2ccccc2)N=C1N (stereo unspecified)")
"> 100 µM"

Hi! Can you tell me TGI for each of these compounds?
1. O=S(O)CCCCCSSSCCCCCS(=O)O
2. Cc1ccccc1NC(=O)C(=O)c1c(O)c2ccc(O)cc2oc1=O
3. N#CC(C#N)=C1NN=C(Cl)c2ccccc21

Result:
1. 27.9 µM
2. > 100 µM
3. > 100 µM

* * *

System: A549 NSCLC
Test: NCI tumour cell line growth inhibition, 48 h; in the data active = GI50 below about 0.43 µM; inactive = the rest
One label from this list, please: active, inactive

>>> discrete_label("CC(=O)N1CCC(Nc2ncc3cc(Oc4ccc(F)cc4F)c(=O)n(C)c3n2)CC1")
"inactive"
>>> discrete_label("O=c1ccccc(-c2ccc(Br)cc2)c1O")
"active"
>>> discrete_label("COc1cc(C2CC(c3cccc(Nc4ccncc4)c3)=NN2c2ccccc2)cc(OC)c1OC (stereo not given)")
"inactive"
>>> discrete_label("COc1cc(OC)c(/C=C/c2cc[n+](C)c3ccccc23)c(OC)c1")
"inactive"

Turning now to a further record.
Task: How was `O=C1/C=C/[C@@H](O)[C@@H]2C[C@@H](O)C[C@H]2/C=C/CCC[C@H](CCc2ccccc2)O1` classified in this test?
Result: active

* * *

Test system: SK-MEL-5 melanoma
Assay: NCI tumour cell line growth inhibition, 48 h
measured-attribute: TGI

Known results for compounds:
>>> measured_value("O=C(NC(O)(C(F)(F)F)C(F)(F)F)c1ccccc1")
"> 100 µM"
>>> measured_value("OC(CC(CC(O)(C(F)(F)F)C(F)(F)F)=NN=C(CC(O)(C(F)(F)F)C(F)(F)F)CC(O)(C(F)(F)F)C(F)(F)F)(C(F)(F)F)C(F)(F)F")
"> 10 µM"
>>> measured_value("CC(C)(C)OC(=O)NC(CSCc1ccc(C(=O)c2ccccc2)cc1)C(=O)O (configuration not stated)")
"> 100 µM"
>>> measured_value("Cc1ccc(NC(=O)CC(=O)N2N=C(N(C)c3ccccc3)CC2c2ccccc2)cc1 (configuration not stated)")
"> 100 µM"
>>> measured_value("COc1ccc(C(=O)/C=C/c2ccc(Oc3cc(C(=O)/C=C/c4ccc(O)cc4)c(O)cc3OC)cc2)c(O)c1")
"18.7 µM"
>>> measured_value("Cn1ccc2c1SSSSS2")
"35.9 µM"

Required: TGI, one value per compound below.
1. CCOC(OC1=C(C#N)CCC1)C(C)[Se]c1ccccc1 (configuration not stated)
2. CCC(=O)OC1=C(c2ccccc2)Sc2ccc(Cl)cc2-n2cccc21
3. Cc1nc2c(=O)[nH]ncc2[nH]1
4. C=C(C(=O)OC)N1C(=O)CC(C)C1=O (configuration not stated)
5. CCCCCCCCCCCC[C@@H](O)[C@H]1CC[C@H]([C@H]2CC[C@H]([C@H](O)CC[C@H](O)CCCCCCCC3=C[C@H](C)OC3=O)O2)O1

Result:
["34 µM", "> 10 µM", "> 100 µM", "32.7 µM", "4.48 µM"]

Provide the reported TGI of each entry below, same order.
1. COc1cc(O)c2c(c1)OCC1(Cc3cc(OC)c(OC)cc31)C2=O (configuration not stated)
2. COC(=O)C1=C(C=O)C2C=CC1C2 (configuration not stated)
3. OC(COc1cccc2ccccc12)CN1CCOCC1 (configuration not stated)
4. COc1ccc(C(NS(=O)(=O)c2ccc(C)cc2)c2c(C(CBr)OC)c3ccccc3n2S(=O)(=O)c2ccccc2)cc1OC (configuration not stated)
5. Cn1nc(-c2cccc(-c3nn(C)c(=NCCO)s3)n2)sc1=NCCO
6. O=NN1CCNC1Cc1ccccc1 (configuration not stated)
7. Cc1ccc(O)c(C2=CC3=NNC(=O)C3C(c3cccc(Br)c3)C2)c1 (configuration not stated)

Result:
["26.7 µM", "> 100 µM", "> 100 µM", "> 100 µM", "> 100 µM", "> 100 µM", "> 75 µM"]

I have 4 compounds here; please give me TGI for each one.
1. O=S(=O)(c1ccccc1)n1c(C(O)c2ccccc2)cc2ccccc21 (configuration not stated)
2. CC(=O)Nc1ccc(C2C(C(=O)Nc3ccccc3)=C(C)NC(C)=C2C(=O)Nc2ccccc2)cc1
3. Cc1[nH]c(=O)nc2nc3ccc(Cl)cc3c(N(CCO)CCO)c12
4. CSC1N=CNc2c1sc(=S)n2-c1ccccc1 (configuration not stated)

Result:
1. 32.4 µM
2. > 100 µM
3. > 100 µM
4. > 100 µM
